assay: qHTS assay to identify small molecule antagonists of the estrogen related receptor signaling pathway with the pleiotropic PPARgamma coactivator (PGC) from Tox21 10K library (AID 1224841); conditions: PGC/ERR reporter cell line, ONE-Glo luciferase, 18 h; series mostly up to 92.4 µM; also: % is scaled to controls: 0 for no effect and ±100 for the full control effect; actives are mostly falling curves and most rising ones were filed inactive; nearly all actives have a fitted effect of over 50% in size
Records with an inconclusive call do not appear. Calls of active or inactive are those of the source. No rule for the calls is given here.

| MOLECULE | outcome |
| --- | --- |
| C=C(C)C(=O)OCCOC1CC2CC1C1C=CCC21 (centres undefined) | inactive |
| Cc1cc(C)c(C)c(C)c1 | inactive |
| CCCC(C)C(O)CC (centres undefined) | inactive |
| Nc1cc(S(=O)(=O)O)ccc1O | inactive |

* * *

experiment: qHTS assay for small molecule disruptors of the mitochondrial membrane potential - cell viability (AID 720634); conditions: HepG2 viability, ATP luminescence (CellTiter-Glo), 1 h; series mostly up to 83.2 µM;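 also: human HepG2 liver cancer cells; % is scaled to controls: 0 for no effect and ±100 for the full control effect; nearly all actives have a fitted effect of over 20% in size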
Inconclusive results are not listed. Calls of active or inactive are those of the source. Calls come from the whole dose curve.
MEASURE: activity change, negative = cytotoxicity

| COMPOUND | MEASURE | RECORDED MEASUREMENT |
| --- | --- | --- |
| C=CC(=O)OCCOCCOCC | activity change, negative = cytotoxicity | inactive |
| Cc1ccccc1OCC(=O)O | activity change, negative = cytotoxicity | inactive |
| CC(O)C(CO)C(C)O (stereo not drawn) | activity change, negative = cytotoxicity | inactive |

* * *

target: Cytochrome P450 2C9 (Homo sapiens) (UniProt P11712); experiment: Cytochrome P450 Family 2 Subfamily C Member 9 (CYP2C9) small molecule antagonists: luciferase reporter qHTS assay (AID 1671198); details: P450-Glo CYP2C9 enzyme assay, luciferin luminescence; series mostly up to 115 µM; also: % is scaled to controls: 0 for no effect and ±100 for the full control effect; nearly all actives have a fitted effect of over 50% in size
Sequence (P11712 whole entry, looked up): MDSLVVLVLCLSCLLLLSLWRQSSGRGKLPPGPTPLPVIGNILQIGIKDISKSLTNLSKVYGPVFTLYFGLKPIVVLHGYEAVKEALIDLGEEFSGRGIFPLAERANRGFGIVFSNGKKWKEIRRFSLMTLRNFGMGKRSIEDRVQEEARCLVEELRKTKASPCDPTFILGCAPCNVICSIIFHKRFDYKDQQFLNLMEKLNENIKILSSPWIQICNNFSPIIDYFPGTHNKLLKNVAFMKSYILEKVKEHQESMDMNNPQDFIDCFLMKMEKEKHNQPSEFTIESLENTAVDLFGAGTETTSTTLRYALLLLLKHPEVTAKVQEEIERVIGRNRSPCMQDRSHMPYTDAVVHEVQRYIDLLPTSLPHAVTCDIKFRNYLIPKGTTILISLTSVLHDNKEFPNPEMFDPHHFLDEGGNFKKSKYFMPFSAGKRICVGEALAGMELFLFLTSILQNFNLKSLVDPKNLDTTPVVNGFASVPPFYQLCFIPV
Results filed as inconclusive are left out. Activity calls are given as the source filed them. Calls come from the whole dose curve; as a rule, active = well fitted inhibition curve with a large enough effect in the repeat runs; inconclusive = weak or mixed curves; inactive = no such curve, though single readings can be large or run the other way.
A correct response names exactly one class from active, inactive

Some solved cases for reference:
| COMPOUND | LABEL CLASS |
| --- | --- |
| CCOC(=O)CN1CCCC1=O | inactive |
| COC(=O)c1ccccc1Cl | inactive |
| CCCc1ncc(C(=O)O)s1 | inactive |
| CC[N+](C)(CC)CC | inactive |
| O=S(=O)(O)CC(O)CCl (stereo not drawn) | inactive |

## Input I'd appreciate the recorded outcome for `O=CN1CCCCC1` from this test.
## Output inactive

## Input I'd appreciate the recorded outcome for `CCCOc1ccc(C(=O)OCCN(CC)CC)cc1N` from this test.
## Output inactive

## Input I'd appreciate the recorded outcome for `NS(=O)(=O)c1cc2c(cc1C(F)(F)F)NCNS2(=O)=O` from this test.
## Output inactive

## Input I'd appreciate the recorded outcome for `CCCCCCCCCCCC(C)=O` from this test.
## Output inactive

* * *

Assay: qHTS assay to test for compound auto fluorescence at 590 nm (red) in HEK293 cell free culture (AID 720683); also: % is scaled to controls: 0 for no effect and ±100 for the full control effect
Settings: cell-free medium autofluorescence, Ex540/Em590 red; series mostly up to 91.3 µM
Source text: U.S. Tox21 Program National Center for Advancing Translational Sciences [NCATS] NIH Chemical Genomics Center [NCGC] U.S. Environmental Protection Agency [EPA] National Institutes of Environmental Health Sciences [NIEHS] National Toxicology Program [NTP] U.S. Food and Drug Administration [FDA] Tox21 Assay Overview: Compound auto fluorescence often interferes with screening of the compound library against various biological targets and signaling pathways. […] This assay includes the red fluorescence data. […]
Activity calls are given as the source filed them. Calls come from the whole dose curve; as a rule, active = well fitted curve in the direction sought with a large enough effect in the repeat runs; inconclusive = weak or mixed curves; inactive = flat fitted curve, though single readings scatter.
MEASURE: fluorescence, % of fluorescent control

Reference set (5 entries):
| COMPOUND | RECORDED MEASUREMENT |
| --- | --- |
| CC(C)CC(O)Cc1ccccc1 (centres undefined) | inactive |
| CCC(C)(C)C | inactive |
| C=CCCCCCCCCCCCCCC | -0.342% [at 18.6 µM] (inactive) |
| NCC1CCC(C(=O)Oc2ccc(CCC(=O)O)cc2)CC1 (centres undefined) | inactive |
| CC/C=C\CCOC(=O)c1ccccc1 | inactive |

## Input Look up fluorescence, % of fluorescent control: CN1C(CCl)Nc2cc(Cl)c(S(N)(=O)=O)cc2S1(=O)=O (centres undefined)
## Output inactive

## Input Look up fluorescence, % of fluorescent control: `O=C(O)P(=O)(O)O`
## Output inactive

## Input Look up fluorescence, % of fluorescent control: `COc1cc(NS(=O)(=O)c2ccc(N)cc2)ncn1`
## Output -0.0018% [at 18.6 µM] (inactive)

## Input Look up fluorescence, % of fluorescent control: `CC(=O)OC/C=C(/C)CCC=C(C)C`
## Output inactive

* * *

assay: qHTS assay for small molecule disruptors of the mitochondrial membrane potential (AID 720635); settings: HepG2 mitochondrial membrane potential, Mito-MPS dye ratio; series mostly up to 83.2 µM
Inconclusive results are not listed. The source made the active and inactive calls. Calls come from the whole dose curve; as a rule, active = well fitted inhibition curve with a large enough effect in the signal ratio in the repeat runs; inconclusive = weak or mixed curves, or effect the other way; inactive = flat fitted curve, though single readings scatter; the % refers to the signal ratio.
A correct response names exactly one class from Yes (active), No (inactive)

Some solved cases for reference:
| COMPOUND | LABEL CLASS |
| --- | --- |
| C=CC(C)(CCC=C(C)C)OC(=O)C(C)C (stereo not drawn) | No |
| CCCOc1ccc(C(=O)OCCN(CC)CC)cc1N | No |
| CC(=O)Nc1ccc(S(=O)(=O)Nc2cc(C)on2)cc1 | No |

## Input I'd appreciate the recorded outcome for `CCCCCCCCCCCCCCBr` from this test.
## Output No

## Input I'd appreciate the recorded outcome for `CCCCCCCCCCCCCC(=O)OCC` from this test.
## Output No

## Input I'd appreciate the recorded outcome for `COC(=O)c1c(C)cc(O)c(C)c1O` from this test.
## Output Yes

## Input I'd appreciate the recorded outcome for `COCc1nnc(-c2ccc[n+]([O-])c2)n1-c1c(Cl)c(Cl)cc2[nH]c(=O)c(=O)[nH]c12` from this test.
## Output No

## Input I'd appreciate the recorded outcome for `CCOCCOCCOC(C)=O` from this test.
## Output No

* * *

experiment: A CellTox Green Cytotoxicity Assay to monitor cytotoxicity in HEK293 cells - 0 hour (AID 1224869); settings: CellTox Green fluorescence; series mostly up to 76.8 µM; also: % is scaled to controls: 0 for no effect and ±100 for the full control effect; nearly all actives have a fitted effect of over 50% in size
Activity calls are given as the source filed them. Calls follow the shape of the dose curve; as a rule, active = well fitted activation curve with a large enough effect in the repeat runs; inconclusive = weak or mixed curves; inactive = flat fitted curve, though single readings scatter.

| STRUCTURE NOTATION | cytotoxicity |
| --- | --- |
| Cc1cccc(N)n1 | inactive |
| C/C(=N\O)c1ccc(OCC(=O)N2CCCCC2)cc1 | inactive |
| CCC(=O)OCCOc1ccccc1 | inactive |

* * *

Target: Cytochrome P450 3A4 (Homo sapiens) (UniProt P08684)
Sequence (P08684 whole entry, looked up): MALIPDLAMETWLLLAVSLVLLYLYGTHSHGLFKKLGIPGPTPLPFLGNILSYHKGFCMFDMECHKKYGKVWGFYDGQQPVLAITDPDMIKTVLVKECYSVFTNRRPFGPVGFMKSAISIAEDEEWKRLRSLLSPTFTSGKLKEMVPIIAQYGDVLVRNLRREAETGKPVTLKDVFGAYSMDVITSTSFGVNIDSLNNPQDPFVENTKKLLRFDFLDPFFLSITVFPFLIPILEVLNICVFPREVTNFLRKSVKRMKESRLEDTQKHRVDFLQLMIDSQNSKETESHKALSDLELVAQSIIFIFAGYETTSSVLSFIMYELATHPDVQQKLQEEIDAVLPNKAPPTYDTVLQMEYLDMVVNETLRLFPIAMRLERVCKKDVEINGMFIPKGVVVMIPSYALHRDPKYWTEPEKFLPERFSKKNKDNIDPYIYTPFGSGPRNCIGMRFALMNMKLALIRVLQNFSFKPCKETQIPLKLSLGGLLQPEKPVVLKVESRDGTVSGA
Assay: Cytochrome P450 Family 3 Subfamily A Member 4 (CYP3A4) small molecule antagonists: luciferase reporter qHTS assay (AID 1671201); also: % is scaled to controls: 0 for no effect and ±100 for the full control effect; nearly all actives have a fitted effect of over 50% in size
Settings: P450-Glo CYP3A4 enzyme, luciferin luminescence, 1 h; series mostly up to 115 µM
Text: National Center for Advancing Translational Sciences [NCATS] U.S. Environmental Protection Agency [EPA] National Institutes of Environmental Health Sciences [NIEHS] National Toxicology Program [NTP] U.S. Food and Drug Administration [FDA] Cytochrome P450 (CYP) enzymes are membrane-bound hemeproteins that play a key role in metabolism of drugs and xenobiotics. […] The luciferin products formed are detected with a luciferin detection reagent, and the amount of light produced is proportional to CYP activity. […]
Records with an inconclusive call do not appear. The source made the active and inactive calls. Calls follow the shape of the dose curve; as a rule, active = well fitted inhibition curve with a large enough effect in the repeat runs; inconclusive = weak or mixed curves; inactive = no such curve, though single readings can be large or run the other way.
A correct response names exactly one class from true for active, false for inactive

## Input I'd appreciate the recorded outcome for `O=C1Nc2ccccc2C1=O` from this test.
## Output false

* * *

assay: qHTS RealTime-Glo MT Cell Viability Assay in HEK293 cells - 40 hour (AID 1224874); conditions: RealTime-Glo luminescence, stronger effect = lower value
Results filed as inconclusive are left out.
Listed here: items and their measured max response.
Please state the figure in %; there is no need to write the unit.

Reference set (8 entries):
| COMPOUND | MEASURE | RECORDED MEASUREMENT |
| --- | --- | --- |
| Cc1nc2ccc(Cl)cc2[nH]1 | max response | 7.55 |
| CCN1CCN(C(=O)N[C@@H](C(=O)N[C@@H]2C(=O)N3[C@@H]2SC(C)(C)[C@H]3C(=O)O)c2ccccc2)C(=O)C1=O | max response | 1.08 |
| Cc1ccc(O)c([N+](=O)[O-])c1 | max response | -15.2 |
| COC(=O)C(c1ccccc1Cl)N1CCc2sccc2C1 (stereo not given) | max response | -3.35 |
| CCCC[O][Al]([O]CCCC)[O]CCCC | max response | 2.78 |
| CC(C)(C)OC(=O)c1ccccc1C(=O)O | max response | 0.795 |
| CCOC(=O)c1ccc(N(C)C)cc1 | max response | -8.74 |
| Cc1ccc(OC(=O)CC(C)C)cc1 | max response | 3.9 |

From here, focus on the item given below.
## Input Look up max response: `C/C(Cl)=C/CCl`
## Output 16

* * *

target: Estrogen receptor beta (Homo sapiens) (UniProt Q92731); experiment: qHTS assay to identify small molecule agonists of the estrogen receptor beta (ER-beta) signaling pathway (AID 1259377); conditions: ER-beta-UAS-bla HEK293T, beta-lactamase FRET ratio, 16 h; series mostly up to 92.4 µM; also: % is scaled to controls: 0 for no effect and ±100 for the full control effect
Sequence (Q92731 whole entry, looked up): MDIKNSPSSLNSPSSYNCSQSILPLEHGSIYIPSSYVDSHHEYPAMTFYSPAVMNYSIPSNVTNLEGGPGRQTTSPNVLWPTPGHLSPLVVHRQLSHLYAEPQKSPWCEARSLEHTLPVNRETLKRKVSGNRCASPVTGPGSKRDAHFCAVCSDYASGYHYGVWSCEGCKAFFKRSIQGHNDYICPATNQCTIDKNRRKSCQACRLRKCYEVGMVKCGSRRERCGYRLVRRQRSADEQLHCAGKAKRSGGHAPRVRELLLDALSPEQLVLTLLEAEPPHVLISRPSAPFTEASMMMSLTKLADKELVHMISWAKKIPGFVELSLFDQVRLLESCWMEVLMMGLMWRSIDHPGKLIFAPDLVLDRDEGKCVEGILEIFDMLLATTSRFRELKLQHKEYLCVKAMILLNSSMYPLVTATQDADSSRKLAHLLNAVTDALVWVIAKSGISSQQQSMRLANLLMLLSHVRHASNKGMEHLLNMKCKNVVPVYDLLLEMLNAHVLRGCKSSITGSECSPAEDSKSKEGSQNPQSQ
Inconclusive results are not listed. Activity calls are given as the source filed them. Calls come from the whole dose curve; as a rule, active = well fitted activation curve with a large enough effect in the signal ratio in the repeat runs (not every such curve was filed as active); inconclusive = weak or mixed curves, or effect the other way; inactive = flat fitted curve, though single readings scatter; the % refers to the signal ratio.

| STRUCTURE NOTATION | activation |
| --- | --- |
| C=CC(=O)OCC[N+](C)(C)C | inactive |
| O=C(O)Cc1c(Cl)ccc(Cl)c1Cl | inactive |
| CCCCCCCC(=O)N(C)C | inactive |

Data origin, for the record: PubChem BioAssay (Tox21)
